Assay read-out pIC50 on Serine protease 1 (Bos taurus, UniProt P00760); records merged from the literature.
Just the number, please; pIC50 means minus log10 of the concentration in mol/L.

Any idea what its pIC50 is? The compound is `N=C(N)c1ccc(-c2ccc(Cn3c(=O)ccc4cc(OC5CCNCC5)ccc43)cc2)cc1`
5.36

Any idea what its pIC50 is? The compound is `CC(=N)N1CCC(Oc2ccc3c(c2)/C(=C/c2ccccc2)C(=O)N3Cc2ccc3ccc(C(=N)N)cc3c2)CC1`
8.09

Any idea what its pIC50 is? The compound is `CC(=N)N1CCC(Oc2ccc3c(ccc(=O)n3Cc3ccc(-c4ccc(C(=N)N)cc4)cc3)c2)CC1`
5.72

Any idea what its pIC50 is? The compound is `COc1ccc2ccc(S(=O)(=O)N[C@@H](CCCNC(=N)N)C(=O)N3CCN(c4cccc(C(F)(F)F)c4)CC3)cc2c1`
5.80

Any idea what its pIC50 is? The compound is `N=C(N)NCCC[C@H](NS(=O)(=O)c1ccc2c(c1)Cc1ccccc1-2)C(=O)N1CCC(c2ccccc2)CC1`
5.49

Any idea what its pIC50 is? The compound is `N=C(N)c1ccc2cc(OC(=O)c3ccc(CN)o3)ccc2c1`
6.30

Any idea what its pIC50 is? The compound is `CSCc1ccc(C(=O)Oc2ccc3cc(C(=N)N)ccc3c2)o1`
6.70

* * *

Assay read-out IC50 on UniProtKB P00760; records merged from the literature.
Decide using IC50 alone. Strictly below 800 nM: condition met. Equal to or above 800 nM: condition not met.

Does the reported IC50 of the following compound sit strictly below 800 nM? `N=C(N)c1ccc2cc(OC(=O)c3ccc(CNC(=O)OCc4ccccc4)o3)ccc2c1`
condition met

Does the reported IC50 of the following compound sit strictly below 800 nM? `COc1cc(C(=N)N)ccc1OC(=O)[C@H]1CC[C@H](CNC(=O)OCc2ccccc2)CC1`
condition not met

Does the reported IC50 of the following compound sit strictly below 800 nM? `N=C(N)c1ccc2cc(OC(=O)c3ccc(COCc4ccccc4)o3)ccc2c1`
condition met

Does the reported IC50 of the following compound sit strictly below 800 nM? `CN(C)C(=O)COC(=O)c1ccc(OC(=O)c2ccc(NC(=N)N)cc2)cc1`
condition met

Does the reported IC50 of the following compound sit strictly below 800 nM? `N=C(N)NCCC[C@@H](NC(=O)[C@H]1CCCNC1)C(=O)c1nc2ccccc2s1`
condition not met

Does the reported IC50 of the following compound sit strictly below 800 nM? `CN(C)CCN(C)C(=O)c1ccc(OC(=O)c2ccc(NC(=N)N)cc2)cc1`
condition met

Does the reported IC50 of the following compound sit strictly below 800 nM? `CCn1c(Cn2c(=O)[nH]c3ccc(OC4CCN(C(=N)N)CC4)cc32)cc2ccc(C(=N)N)cc21`
condition met

Does the reported IC50 of the following compound sit strictly below 800 nM? `C=CCN(CC(=O)OCC)C(=O)/C(C)=C/c1ccc(C(=O)Oc2ccc(C(=N)N)cc2)cc1`
condition met

Does the reported IC50 of the following compound sit strictly below 800 nM? `CC(C)c1ccc(-c2nc3cc4c(cc3c(=O)o2)OCCCO4)c(C(C)C)c1`
condition not met

Does the reported IC50 of the following compound sit strictly below 800 nM? COC1=CC=C(c2nc3cc4c(cc3c(=O)o2)OCCO4)C(OC)C1 (stereo not shown)
condition not met

Does the reported IC50 of the following compound sit strictly below 800 nM? `COc1ccc2ccc(S(=O)(=O)N[C@@H](CCCNC(=N)N)C(=O)N3CCN(c4cc(Cl)cc(Cl)c4)CC3)cc2c1`
condition not met

Does the reported IC50 of the following compound sit strictly below 800 nM? `N=C(N)NCCC[C@H](NC(=O)[C@H]1CCNC1)C(=O)c1nc2ccccc2s1`
condition not met

Does the reported IC50 of the following compound sit strictly below 800 nM? `C[C@H](NC(=O)[C@H](CNC(=O)Cc1ccc2ccccc2c1)NS(=O)(=O)c1ccccc1)C(=O)NCc1ccc(C(=N)N)cc1`
condition met

Does the reported IC50 of the following compound sit strictly below 800 nM? `N=C(N)NCCC[C@H](NC(=O)c1ccc2ccccc2c1)C(=O)N1CCC(c2ccccc2)CC1`
condition not met

Does the reported IC50 of the following compound sit strictly below 800 nM? `N=C(N)NCCC[C@H](NS(=O)(=O)c1ccc2ccc(O)cc2c1)C(=O)N1CCC(c2ccccc2)CC1`
condition not met

Does the reported IC50 of the following compound sit strictly below 800 nM? `N=C(N)c1ccc2cc(OC(=O)c3ccccn3)ccc2c1`
condition not met

Does the reported IC50 of the following compound sit strictly below 800 nM? CC1CNc2c(cccc2S(=O)(=O)N[C@@H](CCCNC(=N)N)C(=O)N2CCN(c3ccccc3)CC2)C1 (stereo partly shown)
condition not met

Does the reported IC50 of the following compound sit strictly below 800 nM? `N=C(N)Nc1ccc(C(=O)Oc2ccc(C(=O)N3CCN(CCNC(=O)OCc4ccccc4)CC3)cc2)cc1`
condition met

* * *

Assay read-out pIC50 on Serine protease 1 (Bos taurus); records merged from the literature.
Just the number, please; pIC50 means minus log10 of the concentration in mol/L.

Query pIC50 on Serine protease 1 (Bos taurus) for `Cc1ccc(S(=O)(=O)N[C@@H](CCCNC(=N)N)C(=O)N2CCN(c3ccccc3)CC2)cc1`
4.13

Query pIC50 on Serine protease 1 (Bos taurus) for `N=C(N)c1ccc2cc(OC(=O)c3ccc(CO)o3)ccc2c1`
6.40

Query pIC50 on Serine protease 1 (Bos taurus) for `COc1cc2ccc(S(=O)(=O)N[C@@H](CCCNC(=N)N)C(=O)N3CCN(c4ccccc4)CC3)cc2cc1OC`
5.11

Query pIC50 on Serine protease 1 (Bos taurus) for `CN(C)C(=O)COC(=O)CCc1ccc(OC(=O)c2ccc(NC(=N)N)cc2)cc1`
9.25

Query pIC50 on Serine protease 1 (Bos taurus) for `Cn1c(=O)n(Cc2ccc3ccc(C(=N)N)cc3c2)c2cc(OC3CCN(C(=N)N)CC3)ccc21`
7.49

Query pIC50 on Serine protease 1 (Bos taurus) for `CC(=N)N1CCC(Oc2ccc3c(ccc(=O)n3Cc3cccc(-c4cccc(C(=N)N)c4)c3)c2)CC1`
7.32

Query pIC50 on Serine protease 1 (Bos taurus) for `COc1ccc2ccc(S(=O)(=O)N[C@@H](CCCNC(=N)N)C(=O)N3CCN(c4ccccc4Cl)CC3)cc2c1`
6.48

Query pIC50 on Serine protease 1 (Bos taurus) for CC(C)C1C(=O)N(Cc2ccc3ccc(C(=N)N)cc3c2)c2ccc(OC3CCN(C(=N)N)CC3)cc21 (centres unmarked)
8.46

* * *

Assay read-out IC50 on Serine protease 1 (Bos taurus, UniProt P00760); records merged from the literature.
Decide using IC50 alone. Strictly below 2 µM: YES. Equal to or above 2 µM: NO.

Does the reported IC50 of the following compound sit strictly below 2 µM? `COc1ccc2c(c1)c(CC(=O)Oc1ccc3cc(C(=N)N)ccc3c1)c(C)n2C(=O)c1ccc(Cl)cc1`
YES

Does the reported IC50 of the following compound sit strictly below 2 µM? `COc1ccc2ccc(S(=O)(=O)N[C@@H](CCCNC(=N)N)C(=O)N3CCC(c4cccc(C)c4)CC3)cc2c1`
YES

Does the reported IC50 of the following compound sit strictly below 2 µM? `N=C(N)Nc1ccc(C(=O)Oc2ccc(C(=O)N3CCCN(CC(N)=O)CC3)cc2)cc1`
YES

Does the reported IC50 of the following compound sit strictly below 2 µM? `CC(=N)N1CCC(Oc2ccc3c(ccc(=O)n3Cc3cccc(-c4ccc(C(=N)N)cc4)c3)c2)CC1`
NO

Does the reported IC50 of the following compound sit strictly below 2 µM? `COc1ccc2ccc(S(=O)(=O)N[C@@H](CCCNC(=N)N)C(=O)N3CCN(c4ccccc4O)CC3)cc2c1`
YES

Does the reported IC50 of the following compound sit strictly below 2 µM? `CN(C)C(=O)CN1CCN(CCOC(=O)c2ccc(OC(=O)Cc3cccc4ccccc34)cc2)CC1`
NO

Does the reported IC50 of the following compound sit strictly below 2 µM? `N=C(N)NCCC[C@H](NS(=O)(=O)c1ccc2oc3ccccc3c2c1)C(=O)N1CCC(c2ccccc2)CC1`
NO

Does the reported IC50 of the following compound sit strictly below 2 µM? `N=C(N)c1ccc(OC(=O)[C@H]2CC[C@H](CN)CC2)c(C(=O)c2ccccc2)c1`
NO

Does the reported IC50 of the following compound sit strictly below 2 µM? `COc1ccc2ccc(S(=O)(=O)N[C@@H](CCCNC(=N)N)C(=O)N3CCC(c4ccccc4)CC3)cc2c1`
YES

Does the reported IC50 of the following compound sit strictly below 2 µM? `CNC(=N)Nc1ccc(C(=O)Oc2ccc3cc(C(=N)N)ccc3c2)cc1`
NO

Does the reported IC50 of the following compound sit strictly below 2 µM? CC(=N)N1CCC(Oc2ccc3c(c2)C(C(C)C)C(=O)N3Cc2ccc3ccc(C(=N)N)cc3c2)CC1 (stereo not drawn)
YES

Does the reported IC50 of the following compound sit strictly below 2 µM? `COc1cc2ccc(S(=O)(=O)N[C@@H](CCCNC(=N)N)C(=O)N3CCC(Cc4ccccc4)CC3)cc2cc1OC`
NO

Does the reported IC50 of the following compound sit strictly below 2 µM? `N=C(N)c1ccc2ccc(Cn3c(=O)n(CC(=O)O)c4ccc(OC5CCN(C(=N)N)CC5)cc43)cc2c1`
YES
